Provide the reported relative viability of each item.
test system: A-427; experiment: relative viability (nuclei count vs DMSO), 5 days (fraction); higher = more cells survive; conditions: first compound 2.53 µM
The answer should be a number; do not append a unit.

Request: What relative viability value was documented for this compound, CCCCCCCCCCCC1=C(O)C(=O)C=C(O)C1=O [Embelin] + NC(=O)Nc1cc(-c2cccc(F)c2)sc1C(=O)N[C@H]1CCCNC1 [AZD7762] (partner 0.2 µM) ?
Response: 0.737

Request: What relative viability value was documented for this compound, CCCCCCCCCCCC1=C(O)C(=O)C=C(O)C1=O [Embelin] + CCNC(=O)c1noc(-c2cc(C(C)C)c(O)cc2O)c1-c1ccc(CN2CCOCC2)cc1 [Luminespib] (partner 0.01 µM) ?
Response: 0.966

Request: What relative viability value was documented for this compound, CCCCCCCCCCCC1=C(O)C(=O)C=C(O)C1=O [Embelin] + CS(=O)(=O)N1CCN(Cc2cc3nc(-c4cccc5[nH]ncc45)nc(N4CCOCC4)c3s2)CC1 [Pictilisib] (partner 1 µM) ?
Response: 0.654

Request: What relative viability value was documented for this compound, CCCCCCCCCCCC1=C(O)C(=O)C=C(O)C1=O [Embelin] + CC(C)C[C@H](NC(=O)[C@H](Cc1ccccc1)NC(=O)c1cnccn1)B(O)O [Bortezomib] (partner 0.002 µM) ?
Response: 0.978

Request: What relative viability value was documented for this compound, CCCCCCCCCCCC1=C(O)C(=O)C=C(O)C1=O [Embelin] + COc1cccc2cc(-c3nc([C@H]4CC[C@H](C(=O)O)CC4)n4ncnc(N)c34)[nH]c12 [OSI-027] (partner 0.5 µM) ?
Response: 0.439
